B1: FAM189A2 (parent)
chain: CALNALTTTVCLVAAALRYLQIFA

# Variants of: B1
# RUN_DESCRIPTION: protein stability index of a GFP-peptide fusion (GPS, HEK-293T) (PSI 1-6); higher = more stable;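 also: lentivirally expressed fusions sorted by FACS into six bins by GFP to DsRed ratio, PSI derived from sequencing read proportions per bin multiplied by bin number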
# ASSAY_CONTEXT: c terminus: a fixed tail appended
ENDPOINT: protein stability index
// return a plain number; no unit text

Worked examples, 5 variants total:
Need protein stability index, item CALNALTTTVQLVAAALRYLQIFA [C11Q] 1.41

Given the entry CALNALTTTVCLVAFALRYLQIFA [A15F] , report its measured protein stability index. 4.15

Recorded protein stability index for CALNALTTTVCLVAAALRPLQIFA [Y19P] , please? 2.86

May I ask what protein stability index has been recorded for CALNALTFTVCLVAAALRYLQIFA [T8F] ? 3.49

Which value of protein stability index has been reported for CALNALTTTVCLVAAALRYLQTFA [I22T] in the records? 2.33

***
Data request, read-out protein stability index, for RALNALTTTVCLVAAALRYLQIFA [C1R] 3.14

Report protein stability index for CALNAATTTVCLVAAALRYLQIFA [L6A] please. 2.83

Record request: protein stability index value, item CALNALTTTVCLKAAALRYLQIFA [V13K] 2.78

Would you mind telling me what protein stability index value was observed for CALNALTTTVCLVAAALRYLQIFY [A24Y] ? 3.32

Dear colleague, I am looking for the recorded protein stability index of the following variant: CALNALTTTVCLVIAALRYLQIFA [A14I] 3.7

So what's the measured protein stability index for this one? CALKALTTTVCLVAAALRYLQIFA [N4K] 2.35

Need protein stability index of CALNALTTTVCLVAAALRYLQIFD [A24D] , thanks. 2.51

I would be grateful if you could share the reported protein stability index for CALNAITTTVCLVAAALRYLQIFA [L6I] . 1.47

I would be grateful if you could share the reported protein stability index for CAINALTTTVCLVAAALRYLQIFA [L3I] . 1.61

What does the data say about its protein stability index? Entry: CALNALTWTVCLVAAALRYLQIFA [T8W] 3.44

Field request: protein stability index | item: CALNALTTTVCLVAAALRSLQIFA [Y19S] 3.45

# input variant: CALNALTTTVCLVAAALRVLQIFA [Y19V] ; wanted: its protein stability index 1.9
